B1: KRT18 (parent)
chain: RVRSLETENRRLESKIREHLEKKG

Variants of: B1
method_notes: protein stability index of a GFP-peptide fusion (GPS, HEK-293T) (PSI 1-6); higher = more stable;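 further: lentivirally expressed fusions sorted by FACS into six bins by GFP to DsRed ratio, PSI derived from sequencing read proportions per bin multiplied by bin number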
stated_conditions: c terminus: a fixed tail appended
readout_label: protein stability index
Answers are plain numbers.

Below are worked cases with known answers.
>>> df
   alteration  numeric_result
0        K15S            5.16
1         T7C            4.97
2         E6V            4.11
3        S14H            4.92
4        R11E            4.73

For each of the variants below, state protein stability index.
1. K15Q
2. G24D
3. R17S
4. E18Y
5. E21I
6. R10E

stdout:
4.56
4.87
5.14
4.07
3.9
4.79
